- STUDY TARGET: A-Raf kinase (Homo sapiens, UniProt P10398, Y301D/Y302D)
- Construct: purchased Sigma
- Sequence (P10398 with tags, fused parts or gaps Y301D/Y302D): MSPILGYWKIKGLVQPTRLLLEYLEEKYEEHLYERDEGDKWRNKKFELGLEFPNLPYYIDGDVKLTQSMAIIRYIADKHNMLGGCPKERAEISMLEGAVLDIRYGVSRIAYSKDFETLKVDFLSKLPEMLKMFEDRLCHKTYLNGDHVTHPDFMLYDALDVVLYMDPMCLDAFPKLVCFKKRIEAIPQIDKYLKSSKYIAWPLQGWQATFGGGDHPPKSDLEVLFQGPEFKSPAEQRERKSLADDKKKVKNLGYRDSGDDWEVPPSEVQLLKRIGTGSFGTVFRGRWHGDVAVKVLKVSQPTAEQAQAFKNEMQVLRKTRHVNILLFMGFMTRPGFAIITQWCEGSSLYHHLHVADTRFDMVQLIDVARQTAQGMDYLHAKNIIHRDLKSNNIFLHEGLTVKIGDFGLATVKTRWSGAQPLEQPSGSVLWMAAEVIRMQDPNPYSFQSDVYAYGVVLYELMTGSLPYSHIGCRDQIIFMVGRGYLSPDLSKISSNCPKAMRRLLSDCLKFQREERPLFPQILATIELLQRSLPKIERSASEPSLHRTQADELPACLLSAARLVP
- EXPERIMENT NOTES: Biochemical assay for A-Raf.1 (coupled pyruvate kinase/lactate dehydrogenase)
- CONDITIONS: read-out: ARAF.1 IC50
PROPERTY NAME: IC50

[
  {
    "COMPOUND": "CC(=O)Nc1cc(-c2cc(-c3cc(NC(=O)NC4CC(C)(C)C4)c(F)cc3C)cc(OCCO)n2)ccn1",
    "STUDY TARGET": "A-Raf kinase (Homo sapiens, UniProt P10398, Y301D/Y302D)",
    "PROPERTY NAME": "IC50",
    "MEAS VALUE": "100 to 500 nM"
  }
]

State the recorded IC50 for every item in the following list.
1. COC(=O)Nc1nccc(-c2cc(OCCO)cc(-c3cc(NC(=O)NCCC4(C)CC4)c(F)cc3C)c2)n1
2. CC(=O)Nc1cc(-c2cc(-c3cc(NC(=O)NCCC(C)(C)C#N)c(F)cc3C)cc(C3CC3)n2)ccn1
3. COC(=O)Nc1cc(-c2cncc(-c3cc(NC(=O)N4CCCCC4)ccc3C)c2)ccn1
4. Cc1cc(F)c(NC(=O)N[C@H]2C[C@H](N(C)C)C2)cc1-c1cc(OCCO)nc(-c2ccnc3[nH]ncc23)c1
5. Cc1ccc(NC(=O)N2CC[C@H](C(C)C)C2)cc1-c1cncc(-c2cc(NC(=O)C3CC3)ncn2)c1

-- reply
["> 1000 nM", "100 to 500 nM", "> 1000 nM", "> 1000 nM", "100 to 500 nM"]
